measured_on: GID4 (Homo sapiens, UniProt Q8IVV7)
Construct: residues 116-300; N-terminal Strep-SUMO-3C-6xHis-Avi, HRV-3C cleaved, Avi-tag kept and biotinylated; E. coli BL21(DE3)
Sequence (Q8IVV7 116-300): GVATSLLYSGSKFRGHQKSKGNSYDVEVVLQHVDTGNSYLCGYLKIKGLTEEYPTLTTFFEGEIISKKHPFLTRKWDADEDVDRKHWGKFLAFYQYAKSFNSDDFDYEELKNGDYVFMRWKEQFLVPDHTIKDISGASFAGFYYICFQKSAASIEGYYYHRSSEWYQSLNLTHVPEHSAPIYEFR
test_name: SPR
Format: binding
condition_description: PBS pH 7.4, 0.05% P-20, 1 mM DTT, 1% DMSO; biotinylated GID4 immobilised on SA chip; read-out: KD^GID4
observed_property: Kd

Cc1oc(-c2cc(F)cc(/N=C(/N)N3CCC(C)(C)CC3)c2)cc1C(=O)N1CCC(CN2CCN(C(=O)C[C@H]3N=C(c4ccc(Cl)cc4)c4c(sc(C)c4C)-n4c(C)nnc43)CC2)CC1 630 nM
